Reported Tm values are given for each entry in this list.
assay type: physicochemical; settings: pH 7
Write the number in °C without appending the unit.

Some molecules with known Tm results, for comparison:
histidine-binding protein (protein, UniProt P0AEU0 23-260, looked up) Histidine-binding periplasmic …: AIPQNIRIGTDPTYAPFESKNSQGELVGFDIDLAKELCKRINTQCTFVENPLDALIPSLKAKKIDAIMSSLSITEKRQQEIAFTDKLYAADSRLVVAKNSDIQPTVESLKGKRVGVLQGTTQETFGNEHWAPKGIEIVSYQGQDNIYSDLTAGRIDAAFQDEVAASEGFLKQPVGKDYKFGGPSVKDEKLFGVGTGMGLRKEDNELREALNKAFAEMRADGTYEKLAKKYFDFDVYGG | 58
arabinose-binding protein (protein, UniProt P02924 24-329, looked up) L-arabinose-binding …: ENLKLGFLVKQPEEPWFQTEWKFADKAGKDLGFEVIKIAVPDGEKTLNAIDSLAASGAKGFVICTPDPKLGSAIVAKARGYDMKVIAVDDQFVNAKGKPMDTVPLVMMAATKIGERQGQELYKEMQKRGWDVKESAVMAITANELDTARRRTTGSMDALKAAGFPEKQIYQVPTKSNDIPGAFDAANSMLVQHPEVKHWLIVGMNDSTVLGGVRATEGQGFKAADIIGIGINGVDAVSELSKAQATGFYGSLLPSPDVHGYKSSEMLYNWVAKDVEPPKFTEVTDVVLITRDNFKEELEKKGLGGK | 54
Lac.G2: GBP variant designed to bind L-lactate (protein) ADTRIGVTIKKYDMNKMSVVRKAIEQDAKAAPDVQLLMNDSQNDQSKQNDQIDVLLAKGVKALAINLVDPAAAGTVIEKARGQNVPVVFFKLEPSRKALDSYDKAYYVGTDSKESGIIQGDLIAKHWAANQGWDLNKDGQIQFVLLKGEPGKPKAEAMTTYVIKELNDKGIKTEQLQLDTAMKDTAQAKDKMDAWLSGPNANKIEVVIANNDAMAMGAVEALKAHNKSSIPVFGVAALPEALALVKSGALAGTVLSDANNQAKATFDLAKNLADGKGAADGTNWKIDNKVVRVPYVGVDKDNLAEFSKK | 50
glutamine-binding protein (protein, UniProt P0AEQ3 23-248, looked up) Glutamine-binding periplasmic …: ADKKLVVATDTAFVPFEFKQGDKYVGFDVDLWAAIAKELKLDYELKPMDFSGIIPALQTKNVDLALAGITITDERKKAIDFSDGYYKSGLLVMVKANNNDVKSVKDLDGKVVAVKSGTGSVDYAKANIKTKDLRQFPNIDNAYMELGTNRADAVLHDTPNILYFIKTAGNGQFKAVGDSLEAQQYGIAFPKGSDELRDKVNGALKTLRENGTYNEIYKKWFGTEPK | 62

Lab book: Tm of ribose-binding protein (protein) KDTIALVVSTLNNPFFVSLKDGAQKEADKLGYNLVVLDSQNNPAKELANVQDLTVRGTKILLINPTDSDAVGNAVKMANQANIPVITLDRQATKGEVVSHIASDNVLGGKIAGDYIAKKAGEGAKVIELQGIAGTSAARERGEGFQQAVAAHKFNVLASQPADFDRIKGLNVMQNLLTAHPDVQAVFAQNDEMALGALRALQTAGKSDVMVVGFDGTPDGEKAVNDGKLAATIAQLPDQIGAKGVETADKVLKGEKVQAKYPVDLKLVVKQ noted as 58
